// provenance: ChEMBL document CHEMBL5614392

# target of assay: 3',5'-cyclic-AMP phosphodiesterase 4D (Homo sapiens, UniProt Q08499)
# Sequence (Q08499 whole entry): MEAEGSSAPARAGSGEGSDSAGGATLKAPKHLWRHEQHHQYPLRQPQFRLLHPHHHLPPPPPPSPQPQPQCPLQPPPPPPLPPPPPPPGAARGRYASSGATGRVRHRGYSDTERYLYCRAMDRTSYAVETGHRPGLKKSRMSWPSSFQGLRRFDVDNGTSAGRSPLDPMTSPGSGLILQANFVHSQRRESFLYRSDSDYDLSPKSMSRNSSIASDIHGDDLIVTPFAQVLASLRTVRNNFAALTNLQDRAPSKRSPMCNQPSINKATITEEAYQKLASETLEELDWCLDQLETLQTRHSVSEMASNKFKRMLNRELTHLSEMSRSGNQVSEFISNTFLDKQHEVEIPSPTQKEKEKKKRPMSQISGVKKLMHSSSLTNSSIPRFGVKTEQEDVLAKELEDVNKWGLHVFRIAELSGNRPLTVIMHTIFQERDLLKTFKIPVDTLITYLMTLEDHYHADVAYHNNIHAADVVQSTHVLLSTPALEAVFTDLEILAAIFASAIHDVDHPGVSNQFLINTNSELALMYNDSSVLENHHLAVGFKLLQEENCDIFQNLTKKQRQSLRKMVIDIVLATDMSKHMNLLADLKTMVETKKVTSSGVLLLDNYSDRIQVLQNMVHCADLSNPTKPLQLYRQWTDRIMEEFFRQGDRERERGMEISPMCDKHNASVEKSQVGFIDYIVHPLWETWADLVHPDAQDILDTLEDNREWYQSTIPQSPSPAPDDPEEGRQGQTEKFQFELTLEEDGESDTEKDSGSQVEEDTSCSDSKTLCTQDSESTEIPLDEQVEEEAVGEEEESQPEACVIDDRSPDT
# assay details: Inhibition of PDE4D7 (unknown origin) using FAM-cyclic-3'5'-AMP as substrate incubated for 1 hrs by fluorescence polarization assay
recorded endpoint: IC50 (nM)

# chemical string, recorded endpoint, limit qualifier, test result
measured = [
    ("COc1ccc(-c2cccc(CN)c2)c2cn(C3CC3)nc12", "IC50", "=", 33.1),
    ("COc1ccc(-c2cccc(C(C)=O)c2)c2cn(C3CC3)nc12", "IC50", "=", 22.9),
    ("COc1ccc(-c2cccc(C(C)=O)c2)c2cn(C3(C(=O)NC4CCCC4)CC3)nc12", "IC50", ">", 1000),
    ("COc1ccc(-c2cccc(C(C)=O)c2)c2cn(C3(C(=O)NCC(C)C)CC3)nc12", "IC50", ">", 1000),
    ("COc1ccc(-c2ccncc2)c2cn(C3CC3)nc12", "IC50", "=", 10.1),
    ("COc1ccc(-c2cccc(C(N)=O)c2)c2cn(C3CC3)nc12", "IC50", "=", 38.2),
    ("COc1cc(-c2ccc(OC)c3nn(C4CC4)cc23)cc(OC)c1OC", "IC50", "=", 27.6),
    ("COc1ccc(-c2cccc(C#N)c2)c2cn(C3(C(=O)NCC(C)C)CC3)nc12", "IC50", "=", 380),
    ("FC(F)Oc1ccc(-c2ccncc2)c2cn(C3CC3)nc12", "IC50", "=", 19.9),
    ("CC(=O)c1cccc(-c2ccc(OC(F)F)c3nn(C4CC4)cc23)c1", "IC50", "=", 13.4),
    ("COc1cc(-c2ccc(OC(F)F)c3nn(C4CC4)cc23)cc(OC)c1OC", "IC50", "=", 10.5),
    ("FC(F)Oc1ccc(-c2ccnc(Cl)c2)c2cn(C3CC3)nc12", "IC50", "=", 22.5),
]
